The origin of these recorded values is PubChem BioAssay AID1963841.

tested on: 439559-082-T-J2-PDC spheroid viability; assay: Anticancer human tumor 439559-082-T-J2-PDC patient-derived colon adenocarcinoma cell line growth inhibition [POLQ]; conditions: second compound 0.0316 µM; first compound 3.16 µM; stronger effect = lower value; spheroids with HUVEC and MSC
MEASURED_METRIC: viability, T/C (%)
Your answer is read as %, so omit the unit and give the number.

Query string: // lookup viability, T/C for O=c1[nH]cc(F)c(=O)[nH]1 + Cc1cccc(N(C)C(=O)C2C(O)CCN2c2nc(C)cc(C(F)(F)F)c2C#N)c1
Result string: 71.9

Query string: And for CCc1cc2c(N3CCc4c(cc(Cn5ccnc5)cc4-c4cn(C)nc4C(F)(F)F)C3=O)ccnc2c(OC)n1 + Cc1cccc(N(C)C(=O)C2C(O)CCN2c2nc(C)cc(C(F)(F)F)c2C#N)c1 ?
Result string: 93.1

Query string: And for COc1cccc2c1C(=O)c1c(O)c3c(c(O)c1C2=O)CC(O)(C(=O)CO)CC3OC1CC(N)C(O)C(C)O1 (stereo not drawn) + Nc1ccc(C#CCN(C(=O)Cc2ncc(C(F)(F)F)cc2C(F)(F)F)c2ccc(F)cc2)nn1 ?
Result string: 60.7

###

system: 439559-082-T-J2-PDC spheroid viability; test: Anticancer human tumor 439559-082-T-J2-PDC cell line growth inhibition [POLQ]; conditions: second compound 1 µM; first compound 0.1 µM; stronger effect = lower value; spheroids with HUVEC and MSC
MEASURED_METRIC: viability, T/C

Query string: // lookup viability, T/C for O=C(Nc1ccc(O)c(NS(=O)(=O)c2ccc(F)cc2)c1)c1ccc(-c2ccccc2)cc1 + Nc1ccc(C#CCN(C(=O)Cc2ncc(C(F)(F)F)cc2C(F)(F)F)c2ccc(F)cc2)nn1
Result string: 103%

Query string: And for Nc1ccn(C2OC(CO)C(O)C2(F)F)c(=O)n1 (stereo not given) + COC1C(OC(N)=O)C(O)C(Oc2ccc3c(O)c(NC(=O)c4ccc(O)c(CC=C(C)C)c4)c(=O)oc3c2C)OC1(C)C ?
Result string: 77.7%

Query string: And for Cn1ncnc1[C@H]1c2n[nH]c(=O)c3cc(F)cc(c23)N[C@@H]1c1ccc(F)cc1 + COC1C(OC(N)=O)C(O)C(Oc2ccc3c(O)c(NC(=O)c4ccc(O)c(CC=C(C)C)c4)c(=O)oc3c2C)OC1(C)C ?
Result string: 99%

Query string: And for CCc1c2c(nc3ccc(O)cc13)-c1cc3c(c(=O)n1C2)COC(=O)[C@]3(O)CC + Nc1ccc(C#CCN(C(=O)Cc2ncc(C(F)(F)F)cc2C(F)(F)F)c2ccc(F)cc2)nn1 ?
Result string: 68.2%

Query string: And for O=c1[nH]cc(F)c(=O)[nH]1 + Nc1ccc(C#CCN(C(=O)Cc2ncc(C(F)(F)F)cc2C(F)(F)F)c2ccc(F)cc2)nn1 ?
Result string: 94.8%

###

Please go through the items and note down their viability, T/C.
tested on: 439559-082-T-J2-PDC spheroid viability; assay: Anticancer human tumor 439559-082-T-J2-PDC cell line growth inhibition [POLQ]; details: second compound 1 µM; first compound 1 µM; stronger effect = lower value; spheroids with HUVEC and MSC;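 further: spheroids exposed to compounds for seven days before readout; 100% = DMSO vehicle control viability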
Your answer is read as %, so omit the unit and give the number.

Query string: // lookup viability, T/C for Nc1ccn(C2OC(CO)C(O)C2(F)F)c(=O)n1 (stereo not given) + COC1C(OC(N)=O)C(O)C(Oc2ccc3c(O)c(NC(=O)c4ccc(O)c(CC=C(C)C)c4)c(=O)oc3c2C)OC1(C)C
Result string: 39.5

Query string: And for CNCc1ccc(-c2[nH]c3cc(F)cc4c3c2CCNC4=O)cc1 + COC1C(OC(N)=O)C(O)C(Oc2ccc3c(O)c(NC(=O)c4ccc(O)c(CC=C(C)C)c4)c(=O)oc3c2C)OC1(C)C ?
Result string: 98.1

Query string: And for C=CCn1c(=O)c2cnc(Nc3ccc(N4CCN(C)CC4)cc3)nc2n1-c1cccc(C(C)(C)O)n1 + Cc1cccc(N(C)C(=O)C2C(O)CCN2c2nc(C)cc(C(F)(F)F)c2C#N)c1 ?
Result string: 75.3

Query string: And for C=CCn1c(=O)c2cnc(Nc3ccc(N4CCN(C)CC4)cc3)nc2n1-c1cccc(C(C)(C)O)n1 + COC1C(OC(N)=O)C(O)C(Oc2ccc3c(O)c(NC(=O)c4ccc(O)c(CC=C(C)C)c4)c(=O)oc3c2C)OC1(C)C ?
Result string: 76.3

Query string: And for CCCS(=O)(=O)Nc1ccc(F)c(C(=O)c2c[nH]c3ncc(-c4ccc(Cl)cc4)cc23)c1F + COC1C(OC(N)=O)C(O)C(Oc2ccc3c(O)c(NC(=O)c4ccc(O)c(CC=C(C)C)c4)c(=O)oc3c2C)OC1(C)C ?
Result string: 103

###

Test system: 439559-082-T-J2-PDC spheroid viability
Assay: Anticancer human tumor 439559-082-T-J2-PDC cell line growth inhibition [POLQ];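 further: spheroids exposed to compounds for seven days before readout; 100% = DMSO vehicle control viability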
Details: second compound 0.0316 µM; first compound 3.16 µM; stronger effect = lower value; spheroids with HUVEC and MSC
Description: Multicellular complex tumor spheroid response to Polymerase (POL) inhibitors (novobiocin, ART-558, RP6685) in combination with a variety of drugs and investigational agents in selected tumor cell lines The POL inhibitors (novobiocin, ART-558, and RP6685) were evaluated both individually and in combination with standard of care and investigational anticancer small molecules within a complex spheroid model of solid tumors. . […]
Please go through the items and note down their viability, T/C.
Your answer is read as %, so omit the unit and give the number.

Query string: // lookup viability, T/C for CC(C)n1c(=O)n(C)c2cnc3cc(F)c(-c4ccc(OCCCN5CCCCC5)nc4)cc3c21 + COC1C(OC(N)=O)C(O)C(Oc2ccc3c(O)c(NC(=O)c4ccc(O)c(CC=C(C)C)c4)c(=O)oc3c2C)OC1(C)C
Result string: 113

Query string: And for COc1cccc2c1C(=O)c1c(O)c3c(c(O)c1C2=O)CC(O)(C(=O)CO)CC3OC1CC(N)C(O)C(C)O1 (stereo not drawn) + COC1C(OC(N)=O)C(O)C(Oc2ccc3c(O)c(NC(=O)c4ccc(O)c(CC=C(C)C)c4)c(=O)oc3c2C)OC1(C)C ?
Result string: 64.5

Query string: And for O=C(Nc1ccc(O)c(NS(=O)(=O)c2ccc(F)cc2)c1)c1ccc(-c2ccccc2)cc1 + Cc1cccc(N(C)C(=O)C2C(O)CCN2c2nc(C)cc(C(F)(F)F)c2C#N)c1 ?
Result string: 103

###

Tested on: 439559-082-T-J2-PDC spheroid viability
Experiment: Anticancer human tumor 439559-082-T-J2-PDC cell line growth inhibition [POLQ];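 further: spheroids exposed to compounds for seven days before readout; 100% = DMSO vehicle control viability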
Details: second compound 1 µM; first compound 0.01 µM; stronger effect = lower value; spheroids with HUVEC and MSC
Method: Multicellular complex tumor spheroid response to Polymerase (POL) inhibitors (novobiocin, ART-558, RP6685) in combination with a variety of drugs and investigational agents in selected tumor cell lines The POL inhibitors (novobiocin, ART-558, and RP6685) were evaluated both individually and in combination with standard of care and investigational anticancer small molecules within a complex spheroid model of solid tumors. . […]
MEASURED_METRIC: viability, T/C (%)
Your answer is read as %, so omit the unit and give the number.

Query string: // lookup viability, T/C for C=CCn1c(=O)c2cnc(Nc3ccc(N4CCN(C)CC4)cc3)nc2n1-c1cccc(C(C)(C)O)n1 + COC1C(OC(N)=O)C(O)C(Oc2ccc3c(O)c(NC(=O)c4ccc(O)c(CC=C(C)C)c4)c(=O)oc3c2C)OC1(C)C
Result string: 104

Query string: And for Cn1ncnc1[C@H]1c2n[nH]c(=O)c3cc(F)cc(c23)N[C@@H]1c1ccc(F)cc1 + Nc1ccc(C#CCN(C(=O)Cc2ncc(C(F)(F)F)cc2C(F)(F)F)c2ccc(F)cc2)nn1 ?
Result string: 102

Query string: And for Cn1ncnc1[C@H]1c2n[nH]c(=O)c3cc(F)cc(c23)N[C@@H]1c1ccc(F)cc1 + COC1C(OC(N)=O)C(O)C(Oc2ccc3c(O)c(NC(=O)c4ccc(O)c(CC=C(C)C)c4)c(=O)oc3c2C)OC1(C)C ?
Result string: 94.2

Query string: And for COc1cccc(OCCCN)c1-c1cc(Nc2cnc(C#N)cn2)n[nH]1 + COC1C(OC(N)=O)C(O)C(Oc2ccc3c(O)c(NC(=O)c4ccc(O)c(CC=C(C)C)c4)c(=O)oc3c2C)OC1(C)C ?
Result string: 82.1

###

Please go through the items and note down their viability, T/C.
test system: 439559-082-T-J2-PDC spheroid viability; assay: Anticancer human tumor 439559-082-T-J2-PDC cell line growth inhibition [POLQ]; conditions: second compound 1 µM; first compound 1 µM; stronger effect = lower value; spheroids with HUVEC and MSC;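 further: spheroids exposed to compounds for seven days before readout; 100% = DMSO vehicle control viability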
Your answer is read as %, so omit the unit and give the number.

Query string: // lookup viability, T/C for O=c1[nH]cc(F)c(=O)[nH]1 + Cc1cccc(N(C)C(=O)C2C(O)CCN2c2nc(C)cc(C(F)(F)F)c2C#N)c1
Result string: 73.7

Query string: And for CCc1c2c(nc3ccc(O)cc13)-c1cc3c(c(=O)n1C2)COC(=O)[C@]3(O)CC + Cc1cccc(N(C)C(=O)C2C(O)CCN2c2nc(C)cc(C(F)(F)F)c2C#N)c1 ?
Result string: 44.9

Query string: And for COc1cc2cc(C(=O)CCC(=O)O)sc2cc1OC + Cc1cccc(N(C)C(=O)C2C(O)CCN2c2nc(C)cc(C(F)(F)F)c2C#N)c1 ?
Result string: 96.5

Query string: And for COc1cc2cc(C(=O)CCC(=O)O)sc2cc1OC + COC1C(OC(N)=O)C(O)C(Oc2ccc3c(O)c(NC(=O)c4ccc(O)c(CC=C(C)C)c4)c(=O)oc3c2C)OC1(C)C ?
Result string: 94.7

Query string: And for COc1cccc(OCCCN)c1-c1cc(Nc2cnc(C#N)cn2)n[nH]1 + Cc1cccc(N(C)C(=O)C2C(O)CCN2c2nc(C)cc(C(F)(F)F)c2C#N)c1 ?
Result string: 20.9

Query string: And for CCc1c2c(nc3ccc(O)cc13)-c1cc3c(c(=O)n1C2)COC(=O)[C@]3(O)CC + COC1C(OC(N)=O)C(O)C(Oc2ccc3c(O)c(NC(=O)c4ccc(O)c(CC=C(C)C)c4)c(=O)oc3c2C)OC1(C)C ?
Result string: 36.8

Query string: And for O=C(Nc1ccc(O)c(NS(=O)(=O)c2ccc(F)cc2)c1)c1ccc(-c2ccccc2)cc1 + COC1C(OC(N)=O)C(O)C(Oc2ccc3c(O)c(NC(=O)c4ccc(O)c(CC=C(C)C)c4)c(=O)oc3c2C)OC1(C)C ?
Result string: 103
